Molecular target: BasC K154A mutant
Experiment: Thermostability-based L-alanine binding assay, K154A
Set-up: species or system Carnobacterium sp AT7
Conditions: mean of n=3; read-out: Apparent Kd K154A, mean
pKd: −log10 of the molar value.

{"Compound": "C[C@H](N)C(=O)O [L-alanine]", "Test target": "BasC K154A mutant", "pKd": 1.21}

====

Biological target: BasC K154A mutant
Assay: Thermostability-based L-alanine binding assay, K154A
Set-up: species or system Carnobacterium sp AT7
Settings: K154A, incubated at Tm, L-alanine 0–200 mM; read-out: KD (apparent, thermostability-based)
Experimental: GFP-fused BasC proteins purified in DM were incubated for 10 min at 4–60 °C (Y236F and K154A mutants) or 4–70 °C (wild-type). In total, 200 µl of 2 mg ml^−1 protein was used for each temperature point. Protein was then centrifuged at 186,000 × g for 30 min. […] Fractions (200 µl) were collected and measured for GFP fluorescence. […] Melting temperatures (Tm) were determined by fitting the curves to a sigmoidal dose-response equation, as previously described. […]
pKd: −log10 of the molar value.
Endpoint label: pKd

{"Mol smiles": "C[C@H](N)C(=O)O", "Endpoint label": "pKd", "Test value": 1.21}

The measurements presented in this section are drawn from paper PMC6472337.
